assay: Toxicity Tests (oral, individual and joint toxicity); conditions: mouse, in vivo, po, 90 mg/kg, Perishment, %, 90 mg./kg., after 3 g./kg. L-Dopa
Where a name gives a salt, the structure may show the parent alone.
Readout: mortality at 72 h (%)
Answers are plain numbers, in %.

The reported value for CN1CCC(=C2c3ccccc3C=Cc3ccccc32)CC1 [Cyproheptadine HCl] in terms of mortality at 72 h is 45

---

test: Toxicity Tests (oral, individual and joint toxicity); conditions: mouse, in vivo, po, 60 mg/kg, Perishment, %, 60 mg./kg., after 3 g./kg. L-Dopa
Counter-ions that a name gives are not always drawn.
Readout: mortality at 72 h (%)
Answers are plain numbers, in %.

For this molecule ( CN1CCC(=C2c3ccccc3C=Cc3ccccc32)CC1 [Cyproheptadine HCl] ), measured mortality at 72 h is 25

---

assay: Toxicity Tests (oral, individual and joint toxicity); details: mouse, in vivo, po, 90 mg/kg, Perishment, %, 90 mg./kg., 1 hour after 1 g/kg. L-Dopa
Where a name gives a salt, the structure may show the parent alone.
Readout: mortality at 72 h (%)
One number for each entry, in %.

CN1CCC(=C2c3ccccc3C=Cc3ccccc32)CC1 [Cyproheptadine HCl] has a reported mortality at 72 h of 10

---

test: Toxicity Tests (oral, individual and joint toxicity); conditions: mouse, in vivo, po, 200 mg/kg, Perishment, %, 200 mg./kg., after 3 g./kg. L-Dopa
Structures can show the parent of a compound that is named as a salt.
Readout: mortality at 72 h (%)
Numbers only, in %.

Lab book: mortality at 72 h of CN1CCC(=C2c3ccccc3C=Cc3ccccc32)CC1 [Cyproheptadine HCl] noted as 75

---

assay: Toxicity Tests (oral, individual and joint toxicity); details: mouse, in vivo, po, 300 mg/kg, Perishment, %, 300 mg./kg., 1 hour after 1 g/kg. L-Dopa
Counter-ions that a name gives are not always drawn.
Readout: mortality at 72 h (%)
Numbers only, in %.

For this compound ( CN1CCC(=C2c3ccccc3C=Cc3ccccc32)CC1 [Cyproheptadine HCl] ), measured mortality at 72 h is 95

---

experiment: Toxicity Tests (oral, individual and joint toxicity); conditions: mouse, in vivo, po, 60 mg/kg, Perishment, %, 60 mg./kg., after 2 g./kg. L-Dopa
Structures can show the parent of a compound that is named as a salt.
Readout: mortality at 72 h (%)
Give bare numbers, in %.

get_value(item= CN1CCC(=C2c3ccccc3C=Cc3ccccc32)CC1 [Cyproheptadine HCl] , readout=mortality at 72 h) returns 0

---

experiment: Toxicity Tests (oral, individual and joint toxicity); details: mouse, in vivo, po, 200 mg/kg, Perishment, %, 200 mg./kg., 1 hour after 1 g/kg. L-Dopa
Structures can show the parent of a compound that is named as a salt.
Readout: mortality at 72 h (%)
Answers are plain numbers, in %.

The measured mortality at 72 h associated with CN1CCC(=C2c3ccccc3C=Cc3ccccc32)CC1 [Cyproheptadine HCl] reads 70

---

assay: Toxicity Tests (oral, individual and joint toxicity); details: mouse, in vivo, po, 40 mg/kg, Perishment, %, 40 mg./kg., after 3 g./kg. L-Dopa
Counter-ions that a name gives are not always drawn.
Readout: mortality at 72 h (%)
Numbers only, in %.

mortality at 72 h in this record for CN1CCC(=C2c3ccccc3C=Cc3ccccc32)CC1 [Cyproheptadine HCl] : 5
